assayed target: Protein kinase 7 (PK7), Plasmodium falciparum 3D7 (PF3D7_0213400)
procedure summary: inhibition of Plasmodium PK7 catalytic activity – biochemical, TCAMS antimalarial set, Kinase-Glo luminescence (AID 1159587)
settings: recombinant PfPK7, Kinase-Glo ATP depletion luminescence
The source made the active and inactive calls. The rule behind the calls is not given here.
reported endpoint: outcome

Consider the worked cases shown below.
| molecule | outcome |
| --- | --- |
| O=C(Nc1ccc(-c2nc3ccccc3[nH]2)cc1)c1cncc(Br)c1 | inactive |
| CS(=O)(=O)c1ccc(CCNCc2ccc(-c3ccc(CNC4CCN(Cc5ccccc5)CC4)cc3)nc2)cc1 | inactive |
| Cc1cc(N(C)CCN(C)C)nc(Nc2ccc(Cl)cc2)n1 | inactive |
| COc1cc(NC(=O)N2CCc3ccc(OCCN(C(C)C)C(C)C)cc32)cc(C(F)(F)F)c1 | inactive |
| C=CCOC(=O)N1CCC(CNCc2cccc(-c3ccc(-c4nc5ccc(C(F)(F)F)cc5[nH]4)cc3)c2)C1 (centres undefined) | inactive |

For each of the items listed, what is its outcome?
1. O=C(CSc1nc2ccccc2c(=O)n1C1CC1)Nc1cc(C(F)(F)F)ccc1Cl
2. O=C(N[C@@H](Cc1ccccc1)C(=O)NCCN1CCCCC1)c1ccc(O)c(-c2cccc(C(F)(F)F)c2)c1
3. c1ccc2[nH]c(-c3ccc(-c4ccc(CN5CCCCC5)cc4)cc3)nc2c1
4. O=C(/C=C/c1ccc(Cl)cc1)NCCCCCN1CCCN(C(=O)Nc2ccc(F)c(Cl)c2)CC1

Solution:
1. inactive
2. inactive
3. inactive
4. inactive
